Reference for the values: patent US7217730B2

system_tested: NS5B from the BK strain (genotype 1b) (Hepatitis C virus genotype 1b, UniProt P26663)
Construct: NS5B from the BK strain (genotype 1b) is expressed in E. coli as a protein in which the 21 C-terminal amino acids are replaced; made in house; host or cells: E. coli
Sequence (P26663 2420-2989): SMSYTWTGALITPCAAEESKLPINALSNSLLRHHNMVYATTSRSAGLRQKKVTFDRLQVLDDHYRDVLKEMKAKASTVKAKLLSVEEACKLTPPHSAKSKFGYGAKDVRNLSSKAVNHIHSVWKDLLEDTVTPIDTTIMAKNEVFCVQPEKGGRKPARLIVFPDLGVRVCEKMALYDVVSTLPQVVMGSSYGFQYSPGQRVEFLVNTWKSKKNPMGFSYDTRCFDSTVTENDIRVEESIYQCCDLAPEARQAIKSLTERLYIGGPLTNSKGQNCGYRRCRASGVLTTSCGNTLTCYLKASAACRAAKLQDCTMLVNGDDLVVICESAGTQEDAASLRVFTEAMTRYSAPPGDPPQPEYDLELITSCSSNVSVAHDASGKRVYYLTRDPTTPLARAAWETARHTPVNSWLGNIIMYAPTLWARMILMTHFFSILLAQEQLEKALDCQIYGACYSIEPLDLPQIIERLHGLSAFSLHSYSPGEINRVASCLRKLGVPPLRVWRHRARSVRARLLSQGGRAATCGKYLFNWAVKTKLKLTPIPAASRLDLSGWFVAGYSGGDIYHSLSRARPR
assay_method_text: Hepatitis C polymerase inhibition, NS5B BK strain, 33P-GTP filter assay
Assay type: biochemical
test_conditions: Table 1A; 20 μM compound; read-out: HCV pol % inh at 20 μM
This section presents compounds with their documented inhibition at 20 µM values.
Write it as a number; the unit % goes unstated.

Solved entries:
[
  {
    "compound": "CC(C)C1(CC(=O)O)OCCc2c1[nH]c1c(Cl)cc(Cl)c(Cl)c21 (stereo not drawn)",
    "quantity_measured": "inhibition at 20 µM",
    "unit": "%",
    "number": 89
  },
  {
    "compound": "CCCC1(CC(=O)O)OCCc2c1[nH]c1cccc(-c3ccc(C(F)(F)F)cc3)c21 (stereo not drawn)",
    "quantity_measured": "inhibition at 20 µM",
    "unit": "%",
    "number": 4
  },
  {
    "compound": "CCCC1(CC(=O)O)OCCc2c1[nH]c1cccc(-c3ccccc3C(F)(F)F)c21 (stereo not drawn)",
    "quantity_measured": "inhibition at 20 µM",
    "unit": "%",
    "number": 14
  },
  {
    "compound": "CCCC1(CC(=O)O)OCCc2c1[nH]c1c(-c3ccc(Cl)cc3)cccc21 (stereo not drawn)",
    "quantity_measured": "inhibition at 20 µM",
    "unit": "%",
    "number": 35
  },
  {
    "compound": "CCCC1(CC(=O)O)OCCc2c1[nH]c1cccc(-c3ccc(Cl)cc3Cl)c21 (stereo not drawn)",
    "quantity_measured": "inhibition at 20 µM",
    "unit": "%",
    "number": 35
  },
  {
    "compound": "C/C=C/CCC1(CC(=O)O)OCCc2c1[nH]c1c(Cl)cc(C)c(C#N)c21 (stereo not drawn)",
    "quantity_measured": "inhibition at 20 µM",
    "unit": "%",
    "number": 2
  }
]

// query Dear colleague, please send me the reported inhibition at 20 µM for O=C(O)CC1(c2ccoc2)OCCc2c1[nH]c1c(Br)cccc21 (stereo not drawn) when you can.
// result 30

// query Return inhibition at 20 µM (reported value) for this compound: CC(C)CCCC1(CC(=O)O)OCCc2c1[nH]c1c(Cl)ccc(Cl)c21 (stereo not drawn)
// result 6
